Reference source for all entries: patent US20220332774A1

tested on: H4-IIE Cells; assay: Glucose production in cultured H4-IIE cells; type: cell-based, rat; conditions: glucose concentration in medium relative to untreated cells; 5 μM peptide, 24 h
Measured Quantity: Percent of Control Activity (%)

substance="95 (MNHIMAKGHDG) [compound 95]" measured_quantity="Percent of Control Activity" measured_result=121
substance="156 (MVVHWMSGVGLPWLWGVGV) [compound 156]" measured_quantity="Percent of Control Activity" measured_result=106
substance="207 (VVGSWCWSLSWVVGMR) [compound 207]" measured_quantity="Percent of Control Activity" measured_result=103
substance="197 (WVEVMMEVEIWCCEIVLGNSFSSQ) [compound 197]" measured_quantity="Percent of Control Activity" measured_result=105
substance="14 (MDGCALLAVL) [compound 14]" measured_quantity="Percent of Control Activity" measured_result=120
substance="103 (MPPKDKIWNLV) [compound 103]" measured_quantity="Percent of Control Activity" measured_result=97
substance="114 (MQWAILGLFVVG) [compound 114]" measured_quantity="Percent of Control Activity" measured_result=118
substance="38 (MGLWLVCWVL) [compound 38]" measured_quantity="Percent of Control Activity" measured_result=111
substance="96 (MNHNQYYQSMLIINNHNSYSNKT) [compound 96]" measured_quantity="Percent of Control Activity" measured_result=130
substance="126 (MSTHLPNYHTNLSYR) [compound 126]" measured_quantity="Percent of Control Activity" measured_result=87
substance="15 (MDMVPQGKDEKL) [compound 15]" measured_quantity="Percent of Control Activity" measured_result=88
substance="70 (MLNWSNNLTNGTSYP) [compound 70]" measured_quantity="Percent of Control Activity" measured_result=105

###

test system: C2C12 Cells; experiment: Glucose utilization in cultured C2C12 cells (myotubes); type: cell-based, mouse; conditions: glucose concentration in medium relative to untreated cells; 5 μM peptide, 22 h
Measured Quantity: Percent of Control Activity (%)

substance="59 (MKSPSTLTTQSKTPSAYFSSFSP) [compound 59]" measured_result=108
substance="186 (MIINDEYWLVVLVMVHCPESMLLK) [compound 186]" measured_result=94
substance="163 (MWMPPTLPHIR) [compound 163]" measured_result=105
substance="16 (MDSWVVGVNEWG) [compound 16]" measured_result=100
substance="31 (MGEVGLLWLGRI) [compound 31]" measured_result=107
substance="117 (MSKKIPATTMVLEWS) [compound 117]" measured_result=91
substance="200 (RLLAWGNTWWQLLWNEGLFFWLEL) [compound 200]" measured_result=93
substance="171 (MYRHLQQTLMKATK) [compound 171]" measured_result=110
substance="157 (MVVKGPLSEGGHPWGREGIWL) [compound 157]" measured_result=102
substance="49 (MHLVFSSGGYARDSIA) [compound 49]" measured_result=108
substance="67 (MLLMWWVSEPHCVVVNM) [compound 67]" measured_result=88
substance="138 (MTSPKIQNNNTPDHTANNQY) [compound 138]" measured_result=115

###

tested on: H4-IIE Cells; assay: Glucose production in cultured H4-IIE cells; type: cell-based, rat; conditions: glucose concentration in medium relative to untreated cells; 5 μM peptide, 24 h
Measured Quantity: Percent of Control Activity (%)

substance="176 (MKNIEAPLAW) [compound 176]" study_system="H4-IIE Cells" measured_result=108
substance="50 (MHQSCKPEMKTFFQGQI) [compound 50]" study_system="H4-IIE Cells" measured_result=106
substance="181 (MCHWAGGASNTGDA) [compound 181]" study_system="H4-IIE Cells" measured_result=109
substance="26 (MGACQGGSDESN) [compound 26]" study_system="H4-IIE Cells" measured_result=97
substance="88 (MMMTIECLHSHFPH) [compound 88]" study_system="H4-IIE Cells" measured_result=112
substance="206 (SSSMMGEVASC) [compound 206]" study_system="H4-IIE Cells" measured_result=106
substance="35 (MGGRWGLGWWRAG) [compound 35]" study_system="H4-IIE Cells" measured_result=100

###

tested on: H4-IIE Cells; experiment: Glucose production in cultured H4-IIE cells; assay type: cell-based, rat; conditions: glucose concentration in medium relative to untreated cells; 5 μM peptide, 24 h
Measured Quantity: Percent of Control Activity (%)

substance="199 (PLCKIHCRIHLYYQSLPHNNIHVP) [compound 199]" measured_quantity="Percent of Control Activity" units_of_measure=% measured_result=111
substance="107 (MPTPILIFRSPWSLYSYPT) [compound 107]" measured_quantity="Percent of Control Activity" units_of_measure=% measured_result=96
substance="158 (MWEEAGRMSEGCLG) [compound 158]" measured_quantity="Percent of Control Activity" units_of_measure=% measured_result=127
substance="195 (LTSKYSNQPSTITHQLQLQSHPSP) [compound 195]" measured_quantity="Percent of Control Activity" units_of_measure=% measured_result=108
substance="129 (MSYRAHTPKMLVMPFPY) [compound 129]" measured_quantity="Percent of Control Activity" units_of_measure=% measured_result=90
substance="193 (LHNNPNPNTNYLPNWKQNTQMGLS) [compound 193]" measured_quantity="Percent of Control Activity" units_of_measure=% measured_result=110
substance="66 (MLLGWRFQLGAWVGGLQ) [compound 66]" measured_quantity="Percent of Control Activity" units_of_measure=% measured_result=101
substance="84 (MMKGKMKWKVKNRV) [compound 84]" measured_quantity="Percent of Control Activity" units_of_measure=% measured_result=108
substance="210 (MKVDATMDFT) [compound 210]" measured_quantity="Percent of Control Activity" units_of_measure=% measured_result=100
substance="71 (MLPLHIYHNTMGLTHPPH) [compound 71]" measured_quantity="Percent of Control Activity" units_of_measure=% measured_result=107
substance="59 (MKSPSTLTTQSKTPSAYFSSFSP) [compound 59]" measured_quantity="Percent of Control Activity" units_of_measure=% measured_result=108
substance="147 (MVLFLLGMVG) [compound 147]" measured_quantity="Percent of Control Activity" units_of_measure=% measured_result=98
substance="83 (MMGMWLVGHYVLSC) [compound 83]" measured_quantity="Percent of Control Activity" units_of_measure=% measured_result=109
substance="79 (MMCLRFRWCGLWS) [compound 79]" measured_quantity="Percent of Control Activity" units_of_measure=% measured_result=116
substance="33 (MGGGVLLGLQ) [compound 33]" measured_quantity="Percent of Control Activity" units_of_measure=% measured_result=100
substance="182 (MFAVSMMWSLE) [compound 182]" measured_quantity="Percent of Control Activity" units_of_measure=% measured_result=113
substance="192 (LGWVVGSFFMGGVWVGRSGIGGML) [compound 192]" measured_quantity="Percent of Control Activity" units_of_measure=% measured_result=110
substance="131 (MTELLTPNWTNLSPY) [compound 131]" measured_quantity="Percent of Control Activity" units_of_measure=% measured_result=97
substance="189 (FEELINVWVWVYMSQWEFYDGPCN) [compound 189]" measured_quantity="Percent of Control Activity" units_of_measure=% measured_result=116
substance="188 (DWSNWVWGVQLYVWDFLGSGCWAW) [compound 188]" measured_quantity="Percent of Control Activity" units_of_measure=% measured_result=125
substance="91 (MMTHPTTPLTINTKPP) [compound 91]" measured_quantity="Percent of Control Activity" units_of_measure=% measured_result=116
substance="25 (MFLVGWWGMV) [compound 25]" measured_quantity="Percent of Control Activity" units_of_measure=% measured_result=94
substance="36 (MGLAAVCVCWVGWAGVVLM) [compound 36]" measured_quantity="Percent of Control Activity" units_of_measure=% measured_result=101
substance="57 (MKPFTVHSTLQSNPFSSPWMTPL) [compound 57]" measured_quantity="Percent of Control Activity" units_of_measure=% measured_result=112
substance="201 (TKNFHQTPPPPLLATALKHISAKP) [compound 201]" measured_quantity="Percent of Control Activity" units_of_measure=% measured_result=109

###

tested on: H4-IIE Cells; assay: Glucose production in cultured H4-IIE cells; type: cell-based, rat; settings: glucose concentration in medium relative to untreated cells; 5 μM peptide, 24 h
Measured Quantity: Percent of Control Activity (%)

substance="165 (MWRVLGALWW) [compound 165]" measured_quantity="Percent of Control Activity" units_of_measure=% measured_result=125
substance="125 (MSSDEFANTMPV) [compound 125]" measured_quantity="Percent of Control Activity" units_of_measure=% measured_result=96
substance="137 (MTSLHNSFYSKDTSLRTPLMTP) [compound 137]" measured_quantity="Percent of Control Activity" units_of_measure=% measured_result=96
substance="162 (MWLVLWLWML) [compound 162]" measured_quantity="Percent of Control Activity" units_of_measure=% measured_result=113
substance="8 (MAPPLPPLEPTVKLT) [compound 8]" measured_quantity="Percent of Control Activity" units_of_measure=% measured_result=90
substance="42 (MGSSRLAVLCPPLHGQVNFTG) [compound 42]" measured_quantity="Percent of Control Activity" units_of_measure=% measured_result=112
substance="37 (MGLLEWLLCWHLLGRIINWWA) [compound 37]" measured_quantity="Percent of Control Activity" units_of_measure=% measured_result=103
substance="51 (MIEMGASFCHV) [compound 51]" measured_quantity="Percent of Control Activity" units_of_measure=% measured_result=111
substance="196 (LVPFDRGDLEGELTGTGMLACVIL) [compound 196]" measured_quantity="Percent of Control Activity" units_of_measure=% measured_result=116
substance="135 (MTNPENQNERKSVRFIHCPHNP) [compound 135]" measured_quantity="Percent of Control Activity" units_of_measure=% measured_result=93
substance="141 (MVEGWLLYLLVSMG) [compound 141]" measured_quantity="Percent of Control Activity" units_of_measure=% measured_result=103
substance="98 (MNPDQPHHLLLSLYTAIFSKPWW) [compound 98]" measured_quantity="Percent of Control Activity" units_of_measure=% measured_result=117
substance="127 (MSTINQQVIITLTVNPTQACS) [compound 127]" measured_quantity="Percent of Control Activity" units_of_measure=% measured_result=88
substance="166 (MWSHPSHHSTINITNKWLL) [compound 166]" measured_quantity="Percent of Control Activity" units_of_measure=% measured_result=105
substance="5 (MAHYSQIPSRPHGWPPSD) [compound 5]" measured_quantity="Percent of Control Activity" units_of_measure=% measured_result=122
substance="120 (MSMPVLGWQWG) [compound 120]" measured_quantity="Percent of Control Activity" units_of_measure=% measured_result=118
substance="169 (MYLNGTCSAS) [compound 169]" measured_quantity="Percent of Control Activity" units_of_measure=% measured_result=109
substance="10 (MATKKNFMEKGTRAGDMGSKPHS) [compound 10]" measured_quantity="Percent of Control Activity" units_of_measure=% measured_result=87
substance="153 (MVSMMTSMGM) [compound 153]" measured_quantity="Percent of Control Activity" units_of_measure=% measured_result=91
substance="187 (AYEGCCYSCKQEDNADVSGFWVEK) [compound 187]" measured_quantity="Percent of Control Activity" units_of_measure=% measured_result=113
substance="177 (MRMGASIGSTTRLSTS) [compound 177]" measured_quantity="Percent of Control Activity" units_of_measure=% measured_result=111
substance="170 (MYNYAKAPTL) [compound 170]" measured_quantity="Percent of Control Activity" units_of_measure=% measured_result=109
substance="140 (MTYSPEQSQLQYMHQQTMFNQ) [compound 140]" measured_quantity="Percent of Control Activity" units_of_measure=% measured_result=97
substance="6 (MAIAVVYPKTTIIPPK) [compound 6]" measured_quantity="Percent of Control Activity" units_of_measure=% measured_result=122
substance="2 (MAASVERGFIFLV) [compound 2]" measured_quantity="Percent of Control Activity" units_of_measure=% measured_result=119
